- System: SOX2
- METHOD NOTES: Screen of a library of FDA-approved drugs for SOX2 antibody staining in A375 cells treated with PLX4720 and AZD6244
- ASSAY SETUP: Z-test against negative controls (DMSO); single dose 5 uM
OUTCOME MEASURE: z
Reply briefly: the number, and no unit.

Study these solved cases before continuing.
# COMPOUND, MEASUREMENT TARGET, z
data = [
    ("CC(=O)OCC(=O)[C@@]12OC3(CCCC3)O[C@@H]1C[C@H]1[C@@H]3CCC4=CC(=O)C=C[C@]4(C)[C@@]3(F)[C@@H](O)C[C@@]12C [AMCINONIDE]", "SOX2", 6.68),
    ("CN(C)Cc1ccc(S(=O)(=O)n2ccc(/C=C/C(=O)NO)c2)cc1 [Resminostat]", "SOX2", 6.242),
    ("CN(C)c1ccc2nc3ccc(=[N+](C)C)cc-3sc2c1 [METHYLENE BLUE]", "SOX2", 3.072),
    ("CCS(=O)(=O)N1CCN(c2ccc(Nc3ncc(C(N)=O)c(NC4CC4)n3)cc2)CC1 [Cerdulatinib (PRT062070, PRT2070), Cerdulatinib]", "SOX2", 3.646),
]

## Input Entry CC(=O)Nc1c(I)cc(I)c(C(=O)O)c1I [ACETRIAZOIC ACID] needs its z filled in; supply it.
## Output 4.812

## Input Given CC(=O)OCC(=O)[C@@]12OC(C)(C)O[C@@H]1C[C@H]1[C@@H]3C[C@H](F)C4=CC(=O)C=C[C@]4(C)[C@@]3(F)[C@@H](O)C[C@@]12C [FLUOCINONIDE] , respond with its z.
## Output 3.538

## Input // fetch z given entry O=C(Oc1cccc2cccnc12)c1ccccc1 [BENZOXIQUINE]
## Output 3.458

## Input Return reported z. Input compound: C[C@H]1[C@H](OC(=O)CCC(=O)O)O[C@@H]2O[C@@]3(C)CC[C@H]4[C@H](C)CC[C@@H]1[C@@]24OO3 [ARTESUNATE]
## Output 3.471

---

- System: SOX2
- METHOD NOTES: Screen of a library of FDA-approved drugs for SOX2 antibody staining in A375 cells treated with PLX4720 and AZD6244
- ASSAY SETUP: A375 cells, 5 uM test drug with 1 uM PLX4720 and 0.5 uM AZD6244, 24 h; normalized and geometry-corrected (loess) signal
Some molecules, each annotated with its measured cor. loess.
Enter the number alone.

Solved entries (count: 4):
# MOLECULE, cor. loess
data = [
    ("CN1C[C@H](CNC(=O)OCc2ccccc2)C[C@@H]2c3cccc4c3c(cn4C)C[C@H]21", 0.4209),
    ("CCCSc1ccc2nc(NC(=O)OC)[nH]c2c1", 0.3977),
    ("O=C(CCCCCCC(=O)Nc1ccccc1)NO", 0.9868),
    ("COc1cc2c(c(OC)c1OC)-c1ccc(OC)c(=O)cc1[C@@H](NC(C)=O)CC2", 0.7111),
]

## Input Please give measured cor. loess of the following entry: Nc1ncn([C@@H]2O[C@H](CO)[C@@H](O)[C@H]2O)c(=O)n1
## Output 0.9945

## Input Indicate its recorded cor. loess; the molecule in question is CCS(=O)(=O)N1CCN(c2ccc(Nc3ncc(C(N)=O)c(NC4CC4)n3)cc2)CC1
## Output 0.4672

## Input Answer with the recorded cor. loess of Oc1cc(Cl)ccc1Oc1ccc(Cl)cc1Cl only.
## Output 0.531

## Input Provide only the value of recorded cor. loess for Cc1cc(Nc2ncc(Cl)c(Nc3ccccc3S(=O)(=O)C(C)C)n2)c(OC(C)C)cc1C1CCNCC1
## Output 3.065

---

- System: SOX2
- METHOD NOTES: Screen of a library of FDA-approved drugs for SOX2 antibody staining in A375 cells treated with PLX4720 and AZD6244
- ASSAY SETUP: A375 cells, 5 uM test drug with 1 uM PLX4720 and 0.5 uM AZD6244, 24 h; normalized and geometry-corrected (loess) signal
Where a name gives a salt, the structure may show the parent alone.
OUTCOME MEASURE: cor. loess
Give a plain numeric answer without units written out.

# COMPOUND, MEASUREMENT TARGET, OUTCOME MEASURE, MEASURED VALUE
data = [
    ("CN1CCN(c2c(F)cc3c(=O)c(C(=O)O)cn4c3c2SCC4)CC1 [RUFLOXACIN HYDROCHLORIDE]", "SOX2", "cor. loess", 0.3991),
]

## Input Provide measured cor. loess value, entry: Cc1oncc1C(=O)Nc1ccc(C(F)(F)F)cc1 [LEFLUNOMIDE]
## Output 0.3194

## Input Please report cor. loess for the following compound: C[C@]12CCC(=O)C(O)=C1CC[C@@H]1[C@@H]2CC[C@]2(C)C(=O)CC[C@@H]12
## Output 0.4179

## Input Query cor. loess for CC1(C)O[C@@H]2C[C@H]3[C@@H]4C[C@H](F)C5=CC(=O)C=C[C@]5(C)[C@@]4(F)[C@@H](O)C[C@]3(C)[C@]2(C(=O)CO)O1 [FLUOCINOLONE ACETONIDE]
## Output 0.4202

---

- Tested on: SOX2
- METHOD NOTES: Screen of a library of FDA-approved drugs for SOX2 antibody staining in A375 cells treated with PLX4720 and AZD6244
- ASSAY SETUP: Z-test against negative controls (DMSO); single dose 5 uM
Listed next: entries and their corresponding z.
API doc: respond with a numeric literal and nothing else, no unit.

# COMPOUND, z
rows = [
    ("COC(=O)[C@]12CCC(C)(C)C[C@H]1[C@H]1C(=O)C=C3[C@@]4(C)C=C(C#N)C(=O)C(C)(C)[C@@H]4CC[C@@]3(C)[C@]1(C)CC2", 9.753),
]

API: the following record is the query input.
## Input Determine from records and report z for CC(=O)O[C@H]1C(=O)[C@@]2(C)[C@H]([C@H](OC(=O)c3ccccc3)[C@]3(O)C[C@H](OC(=O)[C@H](O)[C@@H](NC(=O)c4ccccc4)c4ccccc4)C(C)=C1C3(C)C)[C@]1(OC(C)=O)CO[C@@H]1C[C@@H]2O
## Output 4.64

---

- Tested on: SOX2
- METHOD NOTES: Screen of a library of FDA-approved drugs for SOX2 antibody staining in A375 cells treated with PLX4720 and AZD6244
- ASSAY SETUP: Z-test against negative controls (DMSO); single dose 5 uM
Readings of z for the listed compounds
Answer using only a numeral; do not append any unit.

The following compounds have reported results that may help.
# COMPOUND, z
measured = [
    ("COc1ccc(/C=C\\c2cc(OC)c(OC)c(OC)c2)cc1OP(=O)([O-])[O-].[Na+].[Na+]", 4.256),
    ("O=C(CCCCCCNC(=O)c1cnc(N(c2ccccc2)c2ccccc2)nc1)NO", 5.132),
    ("OC1(c2ccc(Cl)c(C(F)(F)F)c2)CCN(CCCC(c2ccc(F)cc2)c2ccc(F)cc2)CC1", 30.59),
    ("CO[C@H]1C[C@H](O[C@@H]2/C(C)=C/C[C@@H]3C[C@@H](C[C@]4(CC[C@H](C)[C@@H](C5CCCCC5)O4)O3)OC(=O)[C@@H]3C=C(C)/C(=N/O)[C@H]4OC/C(=C\\C=C\\[C@@H]2C)[C@]43O)O[C@@H](C)[C@@H]1O", 7.251),
    ("C[C@@H]1C[C@H]2[C@@H]3C[C@H](F)C4=CC(=O)C=C[C@]4(C)[C@@]3(F)[C@@H](O)C[C@]2(C)[C@@]1(O)C(=O)COC(=O)C(C)(C)C [FLUMETHAZONE PIVALATE]", 3.963),
]

## Input Given the compound Cc1cn(-c2cc(NC(=O)c3ccc(C)c(Nc4nccc(-c5cnccn5)n4)c3)cc(C(F)(F)F)c2)cn1 , write its reported z.
## Output 7.683

---

- Tested on: SOX2
- METHOD NOTES: Screen of a library of FDA-approved drugs for SOX2 antibody staining in A375 cells treated with PLX4720 and AZD6244
- ASSAY SETUP: A375 cells, 5 uM test drug with 1 uM PLX4720 and 0.5 uM AZD6244, 24 h; signal after plate normalization
OUTCOME MEASURE: norm
Please give the numeric answer without any surrounding text.

# PRIMARY SEQUENCE, MEASURED VALUE
data = [
    ("MONENSIN SODIUM", 0.5968),
    ("GRAMICIDIN [GRAMICIDIN (gramicidin A shown)]", 0.7289),
    ("HYDROCORTISONE HEMISUCCINATE", 0.507),
    ("IVERMECTIN", 0.6393),
]

## Input # return norm of ABAMECTIN [ABAMECTIN (avermectin B1a shown)] (system: SOX2)
## Output 0.5009

Values were extracted from patent US20200325543A1.
